Format: physicochemical
Conditions: pH 3.5; 2-8° C.; 96 h

# SMILES_STRING, % assay/degs, difference from T = 0 [%]
data = [
    ("CCC(CC)COC(=O)[C@H](C)N[P@](=O)(OC[C@H]1O[C@@](C(N)=O)(c2ccc3c(N)ncnn23)[C@H](O)[C@@H]1O)Oc1ccccc1", 0.00),
    ("N#C[C@@]1(c2ccc3c(N)ncnn23)O[C@H](CO)[C@@H](O)[C@H]1O", 0.00),
    ("N#C[C@@]1(c2ccc3c(N)ncnn23)O[C@H](COP(=O)(O)Oc2ccccc2)[C@@H](O)[C@H]1O", 0.02),
    ("CCC(CC)COC(=O)[C@H](C)N[P@](=O)(OC[C@H]1O[C@@](C#N)(c2ccc3c(N)ncnn23)[C@H](O)[C@@H]1O)Oc1ccccc1", 0.2),
]

----------
Listing of entries alongside the reported % assay/degs, difference from T = 0.
Format: physicochemical
Details: pH 4.0; 2-8° C.; 7.2 h

# COMPOUND, READOUT_UNIT, % assay/degs, difference from T = 0
rows = [
    ("CCC(CC)COC(=O)[C@H](C)N[P@](=O)(OC[C@H]1O[C@@](C#N)(c2ccc3c(N)ncnn23)[C@H](O)[C@@H]1O)Oc1ccccc1 [Formula Ia]", "%", 0.0),
    ("N#C[C@@]1(c2ccc3c(N)ncnn23)O[C@H](CO)[C@@H](O)[C@H]1O [Compound A]", "%", 0.00),
    ("CCC(CC)COC(=O)[C@H](C)N[P@](=O)(OC[C@H]1O[C@@](C(N)=O)(c2ccc3c(N)ncnn23)[C@H](O)[C@@H]1O)Oc1ccccc1 [Compound G]", "%", 0.00),
    ("N#C[C@@]1(c2ccc3c(N)ncnn23)O[C@H](COP(=O)(O)Oc2ccccc2)[C@@H](O)[C@H]1O [Compound F]", "%", 0.00),
]

----------
Assay type: physicochemical
Conditions: pH 3.5; Ambient; 8 h
Experimental: For each condition, samples were staged at ambient and refrigerated conditions. Samples were analyzed for % assay/degs, appearance, reconstitution time, pH, and compared to T=0. The structures of the key impurities/metabolites are shown below.
Recorded % assay/degs, difference from T = 0 values for a group of compounds are listed next.

# SMILES_STRING, % assay/degs, difference from T = 0 (%)
rows = [
    ("N#C[C@@]1(c2ccc3c(N)ncnn23)O[C@H](CO)[C@@H](O)[C@H]1O", 0.00),
    ("N#C[C@@]1(c2ccc3c(N)ncnn23)O[C@H](COP(=O)(O)Oc2ccccc2)[C@@H](O)[C@H]1O", 0.01),
    ("CCC(CC)COC(=O)[C@H](C)N[P@](=O)(OC[C@H]1O[C@@](C#N)(c2ccc3c(N)ncnn23)[C@H](O)[C@@H]1O)Oc1ccccc1", 0.2),
    ("CCC(CC)COC(=O)[C@H](C)N[P@](=O)(OC[C@H]1O[C@@](C(N)=O)(c2ccc3c(N)ncnn23)[C@H](O)[C@@H]1O)Oc1ccccc1", 0.00),
]

----------
Type: physicochemical
Conditions: pH 2.0; Ambient; 8 h
TEST_READOUT: % assay/degs, difference from T = 0

# SMILES_STRING, TEST_READOUT, RESULT_VALUE
measured = [
    ("N#C[C@@]1(c2ccc3c(N)ncnn23)O[C@H](COP(=O)(O)Oc2ccccc2)[C@@H](O)[C@H]1O", "% assay/degs, difference from T = 0", "0.22%"),
    ("CCC(CC)COC(=O)[C@H](C)N[P@](=O)(OC[C@H]1O[C@@](C#N)(c2ccc3c(N)ncnn23)[C@H](O)[C@@H]1O)Oc1ccccc1", "% assay/degs, difference from T = 0", "−0.2%"),
    ("CCC(CC)COC(=O)[C@H](C)N[P@](=O)(OC[C@H]1O[C@@](C(N)=O)(c2ccc3c(N)ncnn23)[C@H](O)[C@@H]1O)Oc1ccccc1", "% assay/degs, difference from T = 0", "0.00%"),
    ("N#C[C@@]1(c2ccc3c(N)ncnn23)O[C@H](CO)[C@@H](O)[C@H]1O", "% assay/degs, difference from T = 0", "0.01%"),
]
